All values here come from PubChem BioAssay AID686979.

Protocol description: qHTS for Inhibitors of human tyrosyl-DNA phosphodiesterase 1 (TDP1): qHTS in cells in presence of CPT; also: % is scaled to controls: 0 for no effect and ±100 for the full control effect; nearly all actives have a fitted effect of over 55% in size
Assay setup: chicken DT40 Tdp1-/-;hTDP1 cells + 20 nM CPT, ATP luminescence, 48 h; series mostly up to 46.2 µM
Protocol: Human tyrosyl-DNA phosphodiesterase 1 (TDP1) is a novel repair gene, and we propose to use it as a new target for anticancer drug development. […] For the primary screen, Tdp1-/-;hTDP1 cells will be exposed to small molecules in the presence or absence of CPT, and their growth kinetics will be evaluated after 48 hours by measuring ATP activity. […] The hit compounds will then be evaluated in the presence or absence of CPT using Tdp1-/- cells. […]
In all, about 420,000 compounds went through this assay and about 50,000 (12%) were called active. Inconclusive results (about 26%) are left out. Calls follow the shape of the dose curve; as a rule, active = well fitted inhibition curve with a large enough effect; inconclusive = small, poorly fitted or top-dose-only effect; inactive = flat fitted curve, though single readings scatter. This excerpt belongs to a sample that is enriched for actives.
Allowed answers: 1 (yes) (active), 0 (no) (inactive)

Compound	Cat
NS(=O)(=O)c1ccc(NC(=S)N2CCCC2)cc1	0 (no)

Q. Field: outcome | Entry: "CCCCN(CC)C(=O)c1c[nH]c2ccc(S(=O)(=O)Nc3cccc(OC)c3)cc2c1=O"
A. 0 (no)

Q. Hi, sorry to bother you, what did the test record for "Nc1nnnn1/N=C/c1cc([N+](=O)[O-])ccc1O" ?
A. 0 (no)

Q. Hi, do you know how "CN(C)S(=O)(=O)c1ccc(NC(=O)N2CCOCC2)cc1" came out in this test?
A. 0 (no)
